EXPERIMENTAL SYSTEM: human μ-opiate receptor (Homo sapiens, UniProt P35372)
Construct: purchased Perkin Elmer, Zaventem, Belgium RB-HOM; host or cells: CHO-K1 cells
Sequence (P35372 whole entry): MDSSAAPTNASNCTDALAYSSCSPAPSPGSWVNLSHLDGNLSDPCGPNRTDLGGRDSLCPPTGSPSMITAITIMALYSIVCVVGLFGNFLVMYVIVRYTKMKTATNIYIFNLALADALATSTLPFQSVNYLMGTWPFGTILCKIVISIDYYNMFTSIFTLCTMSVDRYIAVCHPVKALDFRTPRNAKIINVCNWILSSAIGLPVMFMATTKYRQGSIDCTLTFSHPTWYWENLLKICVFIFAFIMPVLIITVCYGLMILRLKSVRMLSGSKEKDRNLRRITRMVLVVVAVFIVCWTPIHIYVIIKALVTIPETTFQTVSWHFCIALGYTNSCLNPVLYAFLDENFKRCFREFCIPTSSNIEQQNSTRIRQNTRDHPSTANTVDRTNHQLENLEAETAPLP
ASSAY EXPLANATION: Affinity for the human μ-opiate receptor, [3H]-naloxone displacement (SPA) on CHO-K1 receptor membrane preparation
Assay type: binding
CONDITION INFO: 1 μmol./l test substance; inhibition of specific [3H]-naloxone binding
ASSAY ENDPOINT: μ-Opioid receptor affinity (% inhibition at 1 μmol./l) (%)

COMPOUND: CN(C)CC1CCSc2ccccc2C1(O)c1cccnc1 (centres unmarked) [Example 13]
EXPERIMENTAL SYSTEM: human μ-opiate receptor (Homo sapiens, UniProt P35372)
OBSERVED MEASUREMENT: −23
//
COMPOUND: COc1ccc(C(CN(C)C)C2(O)CCCCC2)cc1 (centres unmarked) [Venlafaxin, venlafaxin, reference compound]
EXPERIMENTAL SYSTEM: human μ-opiate receptor (Homo sapiens, UniProt P35372)
OBSERVED MEASUREMENT: −1
//
COMPOUND: CNCC[C@H](Oc1cccc2ccccc12)c1cccs1 [Duloxetin, duloxetin, reference compound]
EXPERIMENTAL SYSTEM: human μ-opiate receptor (Homo sapiens, UniProt P35372)
OBSERVED MEASUREMENT: −10
//
COMPOUND: COc1cccc2c1CCC(CN(C)C)C2(O)c1cccnc1 (centres unmarked) [Example 36]
EXPERIMENTAL SYSTEM: human μ-opiate receptor (Homo sapiens, UniProt P35372)
OBSERVED MEASUREMENT: −14
//
COMPOUND: CN(C)CC1Cc2ccccc2C1(O)c1cccnc1 (single isomer, unassigned) [Example 1]
EXPERIMENTAL SYSTEM: human μ-opiate receptor (Homo sapiens, UniProt P35372)
OBSERVED MEASUREMENT: 1
